Measured Selectivity index (SI) 8505C of individual entries
System: 8505C (thyroid carcinoma)
protocol.description: SRB cytotoxicity assay, 8505C
Format: cell-based, human
study.conditions: SI = EC50 (NIH 3T3)/EC50 (8505C)
Method: The cytotoxicity of ursolic and betulinic carboxamides 3–30 was determined in sulforhodamine B (SRB) assays. […] The cytotoxicity of the compounds was evaluated using the sulforhodamine-B (Kiton-Red S, ABCR) micro culture colorimetric assay. […] Tris base solution (200 µL, 10 mM) was added to each well and absorbance was measured at λ = 570 nm using a 96-well plate reader (Tecan Spectra, Crailsheim, Germany). […]
In your answer, state the number alone without any accompanying words.

Value of measured Selectivity index (SI) 8505C for the entry C[C@@H]1CC[C@]2(C(=O)NCCN3CCNCC3)CC[C@]3(C)C(=CCC4[C@@]5(C)CC[C@H](O)C(C)(C)C5CC[C@]43C)C2[C@H]1C (stereo partly shown) : 0.85

Selectivity index (SI) 8505C measured on C=C(C)C1CC[C@]2(C(=O)NCCN)CC[C@]3(C)C(CCC4[C@@]5(C)CC[C@H](OC(C)=O)C(C)(C)C5CC[C@]43C)C12 (stereo partly shown) = 0.56

Continuing:
The reported Selectivity index (SI) 8505C of the compound C[C@@H]1CC[C@]2(C(=O)NCCN3CCCCC3)CC[C@]3(C)C(=CCC4[C@@]5(C)CC[C@H](O)C(C)(C)C5CC[C@]43C)C2[C@H]1C (stereo partly shown) was 0.32

Consider C=C(C)C1CC[C@]2(C(=O)NCCOCCN)CC[C@]3(C)C(CCC4[C@@]5(C)CC[C@H](O)C(C)(C)C5CC[C@]43C)C12 (stereo partly shown) . Its measured Selectivity index (SI) 8505C is 2.00

Value of measured Selectivity index (SI) 8505C for the entry C=C(C)C1CC[C@]2(C(=O)NCCOCCN)CC[C@]3(C)C(CCC4[C@@]5(C)CC[C@H](OC(C)=O)C(C)(C)C5CC[C@]43C)C12 (stereo partly shown) : 0.45

Summary for this compound, C[C@@H]1CC[C@]2(C(=O)NCCN3CCCC3)CC[C@]3(C)C(=CCC4[C@@]5(C)CC[C@H](O)C(C)(C)C5CC[C@]43C)C2[C@H]1C (stereo partly shown) : Selectivity index (SI) 8505C is 1.09

response.value for C=C(C)C1CC[C@]2(C(=O)NCCN3CCCCC3)CC[C@]3(C)C(CCC4[C@@]5(C)CC[C@H](OC(C)=O)C(C)(C)C5CC[C@]43C)C12 (stereo partly shown) (field: Selectivity index (SI) 8505C) = 0.40

The value of Selectivity index (SI) 8505C measured for the compound CC(=O)O[C@H]1CC[C@@]2(C)C(CC[C@]3(C)C2CC=C2C4[C@@H](C)[C@H](C)CC[C@]4(C(=O)NCCCCN)CC[C@]23C)C1(C)C (stereo partly shown) turned out to be 0.41

# Selectivity index (SI) 8505C (compound: `C[C@H]1[C@H](C)CC[C@]2(C(=O)O)CC[C@]3(C)C(=CC[C@@H]4[C@@]5(C)CC[C@H](O)C(C)(C)[C@@H]5CC[C@]43C)[C@H]12` ) is 1.39

For reference, reported Selectivity index (SI) 8505C for C[C@@H]1CC[C@]2(C(=O)NCCN(C)C)CC[C@]3(C)C(=CCC4[C@@]5(C)CC[C@H](O)C(C)(C)C5CC[C@]43C)C2[C@H]1C (stereo partly shown) stands at 0.92

Lab book: Selectivity index (SI) 8505C of CC(=O)O[C@H]1CC[C@@]2(C)C(CC[C@]3(C)C2CC=C2C4[C@@H](C)[C@H](C)CC[C@]4(C(=O)NCCN4CCCC4)CC[C@]23C)C1(C)C (stereo partly shown) noted as 0.77

So for C=C(C)C1CC[C@]2(C(=O)NCCN3CCNCC3)CC[C@]3(C)C(CCC4[C@@]5(C)CC[C@H](OC(C)=O)C(C)(C)C5CC[C@]43C)C12 (stereo partly shown) , the logged Selectivity index (SI) 8505C turned out to be 0.91

The compound listed as C[C@@H]1CC[C@]2(C(=O)NCCOCCN)CC[C@]3(C)C(=CCC4[C@@]5(C)CC[C@H](O)C(C)(C)C5CC[C@]43C)C2[C@H]1C (stereo partly shown) has a reported Selectivity index (SI) 8505C of 0.71

In plain terms, C=C(C)C1CC[C@]2(C(=O)NCCN3CCNCC3)CC[C@]3(C)C(CCC4[C@@]5(C)CC[C@H](O)C(C)(C)C5CC[C@]43C)C12 (stereo partly shown) has a documented Selectivity index (SI) 8505C of 0.94

Briefly, Selectivity index (SI) 8505C measured for C=C(C)C1CC[C@]2(C(=O)NCCN3CCCC3)CC[C@]3(C)C(CCC4[C@@]5(C)CC[C@H](O)C(C)(C)C5CC[C@]43C)C12 (stereo partly shown) : 0.80

The measured Selectivity index (SI) 8505C associated with C=C(C)C1CC[C@]2(C(=O)NCCN)CC[C@]3(C)C(CCC4[C@@]5(C)CC[C@H](O)C(C)(C)C5CC[C@]43C)C12 (stereo partly shown) reads 1.00

Sourced from paper PMC6222718
